molecular target: AMP-activated protein kinase, AMPK (Homo sapiens) (UniProt P54646+O43741+P54619+Q9UGJ0+Q9Y478+Q13131+Q9UGI9); experiment: AMP-dependent Kinase enzyme assay. An in vitro enzyme assay that detects ADP turnover that is directly proportional to AMPK activity. This uses naive AMPK that is activated during the assay with MK-8722; format: functional; set-up: scale not given: direction of the effect not stated beside the values; conditions: 30 µM
measured endpoint: Percent Effect (%)
Could you give me the number in %? Just the number is fine.

Worked examples, 3 compounds total:
Cc1nc(CN2CCN(C(=O)COCc3ccccc3)CC2)no1 = -6.7
CC(C)CN1CCC2(C=C(C(=O)N3CCCC3)c3ccccc32)CC1 = -1.76
COc1ccc(C2Nc3cc(Cl)ccc3C3=NCCN32)cc1OC (centres undefined) = 2.8

Prompt: # lookup: Percent Effect of Cc1nc(CNCC2CCCN2c2cccnn2)cs1 (centres undefined)
Response: 1.93

Prompt: # lookup: Percent Effect of "O=C(NCc1ccco1)[C@H]1C[C@H]2OCC[C@H]2N(C(=O)c2ccco2)C1"
Response: 12.4

Prompt: # lookup: Percent Effect of "CCc1ccc(CN2CCC3(CC2)CNC(=O)CO3)o1"
Response: 1.59

Prompt: # lookup: Percent Effect of "COc1ccc(-n2nnc(C(=O)NC(C)C)c2C2CC2)cc1"
Response: -9.18

Prompt: # lookup: Percent Effect of c1ccc2c(N3CCCCC3Cn3cncn3)ncnc2c1 (centres undefined)
Response: -0.541

Prompt: # lookup: Percent Effect of "COCCN1C[C@@H]2CN(Cc3cccc(F)c3)CCC[C@]2(C(=O)O)C1"
Response: 0.729
